# target-of-assay: T1, rat calcitonin receptor (rat, UniProt P32214 25-516)
# T1 construct: whole, on cells; Membranes of transiently transfected BHK tk'ts 13 cells; also called rCTR; rat calcitonin (a) receptor
# T1 sequence (looked up): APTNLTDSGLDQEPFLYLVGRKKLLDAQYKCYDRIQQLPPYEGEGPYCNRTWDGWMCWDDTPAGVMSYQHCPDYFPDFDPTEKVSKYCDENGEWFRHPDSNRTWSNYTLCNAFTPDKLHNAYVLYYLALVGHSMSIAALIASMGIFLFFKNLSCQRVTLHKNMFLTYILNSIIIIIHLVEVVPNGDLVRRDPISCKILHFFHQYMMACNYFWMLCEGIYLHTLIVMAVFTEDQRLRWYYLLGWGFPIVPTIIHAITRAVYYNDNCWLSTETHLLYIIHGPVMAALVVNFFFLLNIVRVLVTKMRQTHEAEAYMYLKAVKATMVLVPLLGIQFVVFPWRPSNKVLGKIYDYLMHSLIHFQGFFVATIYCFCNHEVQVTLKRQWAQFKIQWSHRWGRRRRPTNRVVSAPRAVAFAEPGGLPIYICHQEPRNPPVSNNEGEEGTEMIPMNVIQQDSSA
# protocol-details: SPA competition with 125I-calcitonin on membranes of BHK tk'ts 13 cells with rat calcitonin receptor (Assay VIII)
Numbered stars: 1 amine (or outer) side, 2 acyl side, 3 side chain; on linkers, the order of the positions; unused ones are H or OH. Bridge positions count the residues as written; N and C are the ends. Side chains are listed from the residue outwards. Ends that are not written are not given here. * marks the point of attachment. C20 diacid = O=C(O)CCCCCCCCCCCCCCCCCCC(=O)*; γGlu = O=C(O)[C@H](CCC(=O)[*:2])N[*:1]
experimental-readout: IC50 (nM)
Return type: number; implicit unit nM.

Some solved cases for reference:
binder: K([γGlu-C20 diacid])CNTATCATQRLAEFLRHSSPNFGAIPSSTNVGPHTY-NH2 (disulfide 2-7, Synthetic acylated analogue of human amylin)
IC50 (nM): 5.43

binder: K([γGlu-γGlu-C20 diacid])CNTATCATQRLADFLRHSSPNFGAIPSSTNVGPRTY-NH2 (disulfide 2-7, Synthetic acylated analogue of human amylin; also called compound 130)
IC50 (nM): 223

binder: K([γGlu-γGlu-C20 diacid])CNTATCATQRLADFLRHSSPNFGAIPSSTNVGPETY-NH2 (disulfide 2-7, Synthetic acylated analogue of human amylin)
IC50 (nM): 31.9

binder: {C20 diacid-γGlu}-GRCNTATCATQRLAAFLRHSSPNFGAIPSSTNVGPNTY-NH2 (disulfide 3-8, Synthetic acylated analogue of human amylin, extended by Gly at position -1)
IC50 (nM): 56.3

binder: K([γGlu-γGlu-C20 diacid])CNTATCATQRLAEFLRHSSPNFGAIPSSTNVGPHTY-NH2 (disulfide 2-7 (inferred), Synthetic acylated analogue of human amylin)
IC50 (nM): 21

query: Output IC50 of K([γGlu-γGlu-C20 diacid])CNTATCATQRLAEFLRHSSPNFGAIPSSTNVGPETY-NH2 (disulfide 2-7 (inferred), Synthetic acylated analogue of human amylin)
result: 16.1

query: Supply measured IC50 of K([γGlu-γGlu-C20 diacid])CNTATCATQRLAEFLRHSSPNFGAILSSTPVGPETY-NH2 (disulfide 2-7, Synthetic acylated analogue of human amylin) in your reply.
result: 33.5
